# system-tested: (Homo sapiens, UniProt P08069)
# Construct: human IGF1R kinase domain residues M954-C1367; made in house; host or cells: baculovirus expression (insect cells)
# Sequence (P08069 954-1367): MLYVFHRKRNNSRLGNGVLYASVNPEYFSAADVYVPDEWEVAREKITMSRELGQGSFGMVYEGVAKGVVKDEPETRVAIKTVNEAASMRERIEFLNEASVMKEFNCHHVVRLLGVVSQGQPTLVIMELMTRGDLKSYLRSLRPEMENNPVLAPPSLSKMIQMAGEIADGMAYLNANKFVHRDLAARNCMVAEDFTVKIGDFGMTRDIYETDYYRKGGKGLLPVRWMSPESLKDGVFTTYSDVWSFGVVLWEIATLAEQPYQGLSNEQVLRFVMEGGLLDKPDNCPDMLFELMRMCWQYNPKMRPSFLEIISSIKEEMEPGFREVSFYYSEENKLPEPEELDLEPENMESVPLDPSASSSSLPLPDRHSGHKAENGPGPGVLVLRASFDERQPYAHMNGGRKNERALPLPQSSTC
# protocol-text: IGF1R kinase assay (LCCA), IGF 0P
# Type: biochemical
# run-conditions: IGF1R kinase LCCA assay
quantity-name: IC50

Quick one: IC50 of c1cc(Nc2ccon2)nc(Nc2ccc(N3CCOCC3)cc2)n1 ?
> 5 µM

Which value of IC50 has been reported for CC(C)(C)OC(=O)NCc1ccc(Nc2ncc(Br)c(Nc3cc(C4CC4)[nH]n3)n2)cc1 in the records?
0.05 to 0.5 µM

Fill in the blank: the reported IC50 of Brc1cnc(NCCC(c2ccccc2)c2ccccc2)nc1Nc1cc(C2CC2)[nH]n1 is ____.
> 5 µM

I have this molecule here, c1ccc(-c2cc(CNc3nc(Nc4cc(C5CC5)[nH]n4)cc(N4CCNCC4)n3)on2)cc1 , and I need its recorded IC50.
0.05 to 0.5 µM

IC50 for c1cc(N2CCOCC2)ccc1Nc1nc2c(c(Nc3cc(C4CC4)[nH]n3)n1)CCNC2 ?
> 5 µM

Reported IC50, molecule Cc1cc(Nc2n[nH]cc2C#N)nc(NCc2cc(-c3ccccc3)no2)n1 : ____
> 5 µM

I'd like to know its IC50. The molecule in question is Cc1cc(Nc2cc(C3CC3)n[nH]2)nc(Nc2ccc(N3CCN(C)CC3)cc2)n1
0.5 to 5 µM

So what does the record say about IC50 for c1ccc(-c2cc(CNc3nc(Nc4cc(C5CC5)[nH]n4)cc(OCCN4CCOCC4)n3)on2)cc1 ?
0.05 to 0.5 µM

Would you kindly share the measured IC50 for COc1cc(Nc2nc(C)cc(Nc3cc(C4CC4)[nH]n3)n2)cc(OC)c1 ?
0.5 to 5 µM

Entry under review: Cc1cc(Nc2ccc3ccccc3c2)nc(Nc2ccc(N3CCOCC3)cc2)n1 . Reported IC50?
> 5 µM

What does the data say about its IC50? Entry: Cc1cc(Nc2cc(C3CC3)n[nH]2)nc(Nc2cc(C(F)(F)F)cc(C(F)(F)F)c2)n1
> 5 µM

Give the measured IC50 of CC(=O)NCC#CCn1cc(-c2cccc(OCc3ccccc3)c2)c2c(N)ncnc21 .
> 5 µM

# get_value(readout='IC50', item= Brc1cnc(NCc2cc(-c3ccccc3)no2)nc1Nc1ccccc1 )
> 5 µM

Tell me the measured IC50 of Nc1ncnc2c1c(-c1cccc(Oc3ccccc3)c1)cn2C1CCCC1 , please.
> 5 µM

// lookup IC50 for O=C(NCc1ccccc1)c1nc(Nc2ccccc2Cl)nc(Nc2cc(C3CC3)n[nH]2)c1[N+](=O)[O-]
0.5 to 5 µM

# query: IC50 of entry Cc1cc(Nc2cc(C3CC3)[nH]n2)nc(NCc2cc(-c3ccc(F)cc3)no2)n1
0.05 to 0.5 µM

Report IC50 for Cc1cc(Nc2cc(C3CC3)n[nH]2)nc(Nc2ccc(CCN3CCCCC3)cc2)n1 please.
0.5 to 5 µM

###

# system-tested: (Homo sapiens, UniProt P08069)
# Construct: human IGF1R kinase domain residues M954-C1367; made in house; host or cells: baculovirus expression (insect cells)
# protocol-text: IGF1R kinase assay (LCCA), IGF 0P
# Assay type: biochemical
# run-conditions: IGF1R kinase LCCA assay
pIC50: −log10 of the molar value.
quantity-name: pIC50

Form field: reported pIC50 of Brc1cnc(Nc2ccc(N3CCOCC3)nc2)nc1Nc1cc(C2CC2)n[nH]1
5.30 to 6.30

I have this compound here, c1ccc(-c2cc(CNc3nc(NCCN4CCOCC4)cc(Nc4cc(C5CC5)[nH]n4)n3)on2)cc1 , and I need its recorded pIC50.
6.30 to 7.30

Return reported pIC50; argument: c1cc(Nc2cc(C3CC3)n[nH]2)nc(Nc2ccc(N3CCOCC3)cc2)n1
5.30 to 6.30

Request the reported pIC50 associated with O=C(Nc1ccc(N2CCOCC2)cc1)c1nc(Nc2ccccc2Cl)nc(Nc2cc(C3CC3)n[nH]2)c1[N+](=O)[O-]
< 5.30

// returns reported pIC50 for input Cc1cc(Nc2cc(C3CC3)n[nH]2)nc(Nc2cc(F)cc(F)c2)n1
5.30 to 6.30

Given the compound FC(F)(F)Oc1ccc(Nc2ncc(Br)c(Nc3cc(C4CC4)[nH]n3)n2)c(Br)c1 , what is its reported pIC50?
< 5.30

Entry Brc1cnc(Nc2ccc(Oc3ccccc3)cc2)nc1Nc1cc(C2CC2)[nH]n1 has what pIC50?
< 5.30

Requested read-out: pIC50. Entry: CC(=O)Nc1ccc(Cl)c(Nc2nccc(Nc3cc(C4CC4)[nH]n3)n2)c1
5.30 to 6.30

Consider the compound Brc1cnc(Nc2cc(C3CC3)n[nH]2)nc1Nc1cc(C2CC2)n[nH]1 and give its measured pIC50.
5.30 to 6.30

pIC50 for CN(c1ccccc1)c1ncc(Br)c(Nc2cc(C3CC3)[nH]n2)n1 ?
6.30 to 7.30

Please give the measured pIC50 for this compound: Nc1cnc(Nc2ccccc2Cl)nc1Nc1cc(C2CC2)n[nH]1
6.30 to 7.30

Quick one: pIC50 for Cc1cc(Nc2ccnc(Nc3ccc(N4CCOCC4)cc3)n2)no1 ?
5.30 to 6.30

Which pIC50 value is on record for CN1CCN(C(=O)c2cc(Nc3cc(C4CC4)[nH]n3)nc(NCc3cc(-c4ccccc4)no3)n2)CC1 ?
6.30 to 7.30

What does the data say about its pIC50? Entry: NC(=O)c1ccc(Oc2ncc(Br)c(Nc3cc(C4CC4)n[nH]3)n2)cc1
5.30 to 6.30

Record request: pIC50 value, item N#Cc1ccc(Nc2ncc(Cl)c(Nc3cc(C4CC4)[nH]n3)n2)cc1
6.30 to 7.30

# get_value(readout='pIC50', item= Cc1cc(Nc2cc(C3CC3)n[nH]2)nc(Nc2cc(Cl)cc(Cl)c2)n1 )
5.30 to 6.30

Look up pIC50: Clc1cc(Br)ccc1Nc1ncc(Br)c(Nc2cc(C3CC3)[nH]n2)n1
5.30 to 6.30
